This section presents compounds with their documented TGI values.
# Test system: HCT-116 colon
# PROTOCOL_SUMMARY: NCI tumour cell line growth inhibition, 48 h
READOUT: TGI (µM)

COMPOUND	MEASURED_ON	VALUE_QUALIFIER	NUMERIC_VALUE
COc1cc2c(cc1OC)-c1cc3cc(OC)c(OC)cc3n1CC2	HCT-116 colon	>	100
COC(=O)C1(Cc2ccc3c(c2)CCC3)Cc2ccc3c(c2C1O)CCC3 (stereo not given)	HCT-116 colon	=	28.1
CN1CN(c2ccccc2)C2(CCN(CCCSc3ccccc3NC(=O)/C=C/c3ccccc3)CC2)C1=O	HCT-116 colon	=	8.76
C[C@]12CC[C@@H]3c4cc(OCC(F)(F)F)c(O)cc4C(=O)C[C@H]3[C@@H]1CC[C@@H]2O	HCT-116 colon	>	100
O=[N+]([O-])c1ccc(C2=NOC(c3ccccc3F)N2C23CC4CC(CC(C4)C2)C3)cc1 (stereo not given)	HCT-116 colon	>	100

###

This section presents molecules with their documented TGI values.
# Tested on: SK-MEL-28 melanoma
# PROTOCOL_SUMMARY: NCI tumour cell line growth inhibition, 48 h
READOUT: TGI

MOLECULE	READOUT	RESULT
O=C(CO)CC(=O)C(=O)Nc1nc([N+](=O)[O-])cs1	TGI	> 100 µM
O=C1NC(Cc2c[nH]c3ccccc23)C(=O)N2C(C3CCCCC3)c3[nH]c4ccccc4c3C[C@@H]12 (some centres not stated)	TGI	44.4 µM
O=[N+]([O-])c1ccc(-c2nc(-c3ccccc3)c(-c3ccccc3)n2-c2ccccc2)cc1	TGI	9.97 µM
O=C1/C(=C\c2cccc(Oc3ccccc3)c2)S(=O)(=O)C(c2ccccc2)N1c1ccc(Cl)cc1 (configuration not stated)	TGI	34 µM
O=C/C(=C(/Br)I)c1ccccc1	TGI	2.6 µM
CC(C)c1ccccc1NC(=O)C(=O)Cc1nc2ccccc2s1	TGI	> 100 µM
O=c1oc2ccccc2c(O)c1C(c1ccco1)c1c(O)c2ccccc2oc1=O	TGI	52.1 µM
CC(=O)C(=[N+]=[N-])C(=O)OC(C)(C)C#N	TGI	> 10 µM
O=P(O)(O)c1ccccc1 (tested in a mixture with another compound)	TGI	> 100 µM
NCCCNc1nc2ccccc2c2c(=O)c3cc(C(F)(F)F)ccc3sc12	TGI	3.23 µM
O=C1C(/C=C/c2ccc(Cl)cc2)=NNC2N1N=C1NC(=O)C3(NN12)c1ccccc1-c1ccccc13 (configuration not stated)	TGI	> 100 µM
CN(NC(=O)CCCl)C1=NCCN1	TGI	> 100 µM
CC1=C2C(=O)[C@H]3[C@@H](CC=C4C[C@@H](O)CC[C@@]43C)[C@@H]2CC[C@]12O[C@@H]1C[C@H](C)CN[C@H]1[C@H]2C	TGI	> 92.1 µM
CC(=O)c1ccc(NC(=O)CSc2nnc(-c3cc(-c4ccc(C)cc4)nc4ccccc34)o2)cc1	TGI	> 100 µM
CCOC(=O)C(=O)Nc1c(F)cc(F)cc1Br	TGI	> 100 µM
CCC[CH2][Sn]([CH2]CCC)([O]C(=O)c1cc(F)cc(F)c1)[O]C(=O)c1cc(F)cc(F)c1	TGI	2.37 µM
CC(C)(C)c1ccc(-c2nc3ccc([N+](=O)[O-])cc3c(=O)o2)cc1	TGI	97.1 µM
CN(C)c1ccc(/C=C(/NC(=O)c2ccccc2)c2nc3ccc(Cl)cc3[nH]2)cc1	TGI	> 100 µM
CC(C)[C@@]12C[C@@H](OC(=O)[C@H]3CO3)[C@@](C)(O1)[C@@H]1CC[C@@H](C)[C@H]1[C@@H]2OC(=O)/C=C/c1ccccc1	TGI	57.2 µM
CC(OC(=O)NCn1cc(-c2ccccc2)nn1)c1ccccc1 (configuration not stated)	TGI	> 100 µM
CC(=O)O/N=C/c1ncccc1OC(C)=O	TGI	> 100 µM
COc1ccc(C(=O)c2ccc(OC)c(OC)c2OC)cc1	TGI	> 100 µM
CN1C2(c3ccccc3)c3c(-c4ccccc4)sc(-c4ccccc4)c3C1(c1ccccc1)C1C(=O)N(c3ccccc3)C(=O)C12 (configuration not stated)	TGI	> 100 µM
COc1ccc(-c2csc(=Nc3ccccc3)n2CC(O)c2ccc([N+](=O)[O-])cc2)cc1 (configuration not stated)	TGI	> 100 µM
COC(=O)C1=C(C(=O)OC)C2(OC(C)=O)c3ccccc3-c3ccccc3C12 (configuration not stated)	TGI	11.9 µM
O=C(OCc1ccccc1)N1CCN(/[N+]([O-])=N/Oc2ccc([N+](=O)[O-])cc2[N+](=O)[O-])CC1	TGI	31.1 µM
N#Cc1c(-c2ccc([N+](=O)[O-])cc2)cc(-c2ccc(Nc3ccnc4cc(C(F)(F)F)ccc34)cc2)nc1N	TGI	59.8 µM
CCCCCCCC/C=C/CCCCCCCC1=NCC[N+]1(CCO)CCO	TGI	21.6 µM
COc1ccc(/C(Cl)=C(\C=O)c2ccc([N+](=O)[O-])cc2)cc1OC	TGI	30.5 µM
COc1ccc2oc3c4c2c1CCC4CCC3=O (configuration not stated)	TGI	> 100 µM
COCC1CCCN1c1ccc(/C=C(/C#N)C(N)=S)cc1 (configuration not stated)	TGI	> 100 µM
CC(=O)OCC1OC(n2c3c(c(-c4ccco4)c(C#N)c2=S)CCC3)C(OC(C)=O)C(OC(C)=O)C1OC(C)=O (configuration not stated)	TGI	> 100 µM
Cc1ccc(NC(=O)NC(=O)c2ccc([N+](=O)[O-])cc2[N+](=O)[O-])cc1Oc1ncc(Cl)cn1	TGI	24.1 µM
Cn1c(=O)cc(NCc2ccc(Cl)cc2)[nH]c1=O	TGI	> 100 µM
CCn1c2c(n(CC)c1=S)-c1c(n(CC)c(=S)n1CC)SSSS2	TGI	18.7 µM
O=C(CC1(O)C(=O)Nc2ccccc21)c1ccccc1Cl (configuration not stated)	TGI	> 100 µM
CC1OC(OC2C(O[C@H]3CC[C@@]4(C)[C@@H](CC[C@@H]5[C@@H]4CC[C@]4(C)[C@@H]6[C@H](C[C@@H]54)O[C@]4(CC[C@@H](C)CO4)[C@H]6C)C3)OC(CO)C(OC3OC(CO)C(O)C(OC4OCC(O)C(O)C4O)C3OC3OCC(O)C(O)C3O)C2O)C(O)C(O)C1O (some centres not stated)	TGI	2.04 µM
